Assay: logP (HCOOH)
Conditions: hplc, formic acid
Parameter: chromatographic logP. Scope: all listed entries.
Keep the answer to the number alone.

MOLECULE: CCNC(=S)N1CCOC1=NC(C)c1cccnc1 (stereo not shown)
chromatographic logP: 1.16

[in] I would be grateful if you could share the reported chromatographic logP for CCC(N=C1OCCN1C(=S)NCCOC)c1cccs1 (stereo not shown) .
[out] 3.71

[in] I would be grateful if you could share the reported chromatographic logP for "COCCNC(=S)N1CCOC1=NCc1cccn1C" .
[out] 2.37

[in] I would be grateful if you could share the reported chromatographic logP for "COCCNC(=S)N1CCOC1=NCc1cccs1" .
[out] 2.84

[in] I would be grateful if you could share the reported chromatographic logP for CCNC(=S)N1CCOC1=NC(C)c1cccs1 (stereo not shown) .
[out] 3.58

[in] I would be grateful if you could share the reported chromatographic logP for CNC(=S)N1CCOC1=NC(C)c1ccnc(Cl)c1 (stereo not shown) .
[out] 2.58

[in] I would be grateful if you could share the reported chromatographic logP for CCC(N=C1OCCN1C(=S)NCCOC)c1ccc(C(F)(F)F)cn1 (stereo not shown) .
[out] 3.69

---

Parameter: chromatographic logP. Scope: all listed entries.
Assay: logP (HCOOH)
Settings: hplc, formic acid
Keep the answer to the number alone.

COMPOUND: CCn1ccc(C(C)N=C2OCCN2C(=S)NC)n1 (stereo not shown)
chromatographic logP: 1.45
//
COMPOUND: CNC(=S)N1CCOC1=NCc1ccco1
chromatographic logP: 1.89
//
COMPOUND: FC(F)(F)CNC(=S)N1CCOC1=NCc1ccco1
chromatographic logP: 3.29
//
COMPOUND: CCNC(=S)N1CCOC1=NC(CC)c1ccc(C)c(C)n1 (stereo not shown)
chromatographic logP: 1.14

[in] I would be grateful if you could share the reported chromatographic logP for "CCNC(=S)N1CCOC1=NCc1ccco1" .
[out] 2.58

[in] I would be grateful if you could share the reported chromatographic logP for CC(N=C1OCCN1C(=S)NCC(F)(F)F)c1cc2ccccc2o1 (stereo not shown) .
[out] 4.47

[in] I would be grateful if you could share the reported chromatographic logP for CCNC(=S)N1CCOC1=NC(CC)c1ccccn1 (stereo not shown) .
[out] 1.53

[in] I would be grateful if you could share the reported chromatographic logP for CCC(N=C1OCCN1C(=S)NCCOC)c1ccc(C)c(C)n1 (stereo not shown) .
[out] 1.33

[in] I would be grateful if you could share the reported chromatographic logP for CNC(=S)N1CCOC1=NC(C)c1ccco1 (stereo not shown) .
[out] 2.38

[in] I would be grateful if you could share the reported chromatographic logP for CNC(=S)N1CCOC1=NC(C)c1cccs1 (stereo not shown) .
[out] 2.99

---

Assay: logP (HCOOH)
Settings: hplc, formic acid
REPORTED PROPERTY: chromatographic logP
Keep the answer to the number alone.

COMPOUND: COCCNC(=S)N1CCOC1=NC(C)c1ccncc1 (stereo not shown)
REPORTED PROPERTY: chromatographic logP
OBS VALUE: 1

COMPOUND: CCNC(=S)N1CCOC1=NC(CC)c1cc(Br)cs1 (stereo not shown)
REPORTED PROPERTY: chromatographic logP
OBS VALUE: 4.72

COMPOUND: CNC(=S)N1CCOC1=NC(C)c1cc2ccccc2o1 (stereo not shown)
REPORTED PROPERTY: chromatographic logP
OBS VALUE: 3.64

COMPOUND: COCCNC(=S)N1CCOC1=NC(C)c1ccccn1 (stereo not shown)
REPORTED PROPERTY: chromatographic logP
OBS VALUE: 1.12

COMPOUND: CNC(=S)N1CCOC1=N[C@@H](C)c1cccs1
REPORTED PROPERTY: chromatographic logP
OBS VALUE: 3.02

COMPOUND: CCOC(=O)CNC(=S)N1CCOC1=NCc1ccc(Cl)nc1
REPORTED PROPERTY: chromatographic logP
OBS VALUE: 2.54

COMPOUND: COCCNC(=S)N1CCOC1=NC(C)c1cccnc1 (stereo not shown)
REPORTED PROPERTY: chromatographic logP
OBS VALUE: 1.07

COMPOUND: COCCNC(=S)N1CCOC1=NC(C)c1cccs1 (stereo not shown)
REPORTED PROPERTY: chromatographic logP
OBS VALUE: 3.28

COMPOUND: CCC(N=C1OCCN1C(=O)NCCCl)c1ccc(C(F)(F)F)cn1 (stereo not shown)
REPORTED PROPERTY: chromatographic logP
OBS VALUE: 2.15

Next compound, chromatographic logP to be filled in.
[in] I would be grateful if you could share the reported chromatographic logP for "CCNC(=S)N1CCOC1=NCc1ccsc1" .
[out] 2.56
